Hi there, I'd appreciate the recorded Ki for every entry that follows.
Target: trypsin (Bos taurus)
Sequence (P00760 24-246): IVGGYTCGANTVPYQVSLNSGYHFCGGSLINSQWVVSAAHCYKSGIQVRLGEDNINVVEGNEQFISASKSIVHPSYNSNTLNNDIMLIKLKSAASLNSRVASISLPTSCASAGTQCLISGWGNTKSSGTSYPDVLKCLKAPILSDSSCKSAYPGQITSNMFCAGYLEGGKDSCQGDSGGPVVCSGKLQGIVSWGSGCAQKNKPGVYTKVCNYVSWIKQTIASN
Structures can show the parent of a compound that is named as a salt.

Below, 2 molecules whose answers are already recorded.
INSERT INTO results (molecule, target, reportedvalue) VALUES
  ('N=C(NO)c1cccc(CC(NS(=O)(=O)c2ccc3ccccc3c2)C(=O)N2Cc3ccccc3CC2C(=O)O)c1 (racemic) [Compound 190, hydroiodide]', 'trypsin (Bos taurus)', '27 µM'),
  ('COC(=O)[C@H]1CCCN1C(=O)[C@H](Cc1cccc(C(=N)N)c1)NS(=O)(=O)c1ccc2ccccc2c1 [Compound 124, hydrochloride]', 'trypsin (Bos taurus)', '3.4 µM');

Okay, here is my list. What is Ki for each of these?
1. N=C(N)c1cccc(C[C@H](NS(=O)(=O)c2ccc3ccccc3c2)C(=O)N2CCC[C@@H]2C(=O)O)c1 [Compound 123, hydrochloride]
2. N=C(N)Nc1cccc(CC(NS(=O)(=O)c2ccc3ccccc3c2)C(=O)N2CCCCC2)c1 (racemic) [Compound 207, hydrochloride]
3. CC1CCN(C(=O)C(Cc2cccc(N)c2)NS(=O)(=O)c2ccc3ccccc3c2)CC1 (racemic) [Compound 203]

Solution:
1. 0.96 µM
2. 4.1 µM
3. > 1000 µM
